target: recombinant human ASK1 kinase (Homo sapiens (Human), UniProt Q99683); experiment: TR-FRET ASK1 kinase assay (HTRF KinEASE-STK); type: biochemical; conditions: Compounds 6-17, same competitive TR-FRET immunoassay
Sequence (Q99683 whole entry): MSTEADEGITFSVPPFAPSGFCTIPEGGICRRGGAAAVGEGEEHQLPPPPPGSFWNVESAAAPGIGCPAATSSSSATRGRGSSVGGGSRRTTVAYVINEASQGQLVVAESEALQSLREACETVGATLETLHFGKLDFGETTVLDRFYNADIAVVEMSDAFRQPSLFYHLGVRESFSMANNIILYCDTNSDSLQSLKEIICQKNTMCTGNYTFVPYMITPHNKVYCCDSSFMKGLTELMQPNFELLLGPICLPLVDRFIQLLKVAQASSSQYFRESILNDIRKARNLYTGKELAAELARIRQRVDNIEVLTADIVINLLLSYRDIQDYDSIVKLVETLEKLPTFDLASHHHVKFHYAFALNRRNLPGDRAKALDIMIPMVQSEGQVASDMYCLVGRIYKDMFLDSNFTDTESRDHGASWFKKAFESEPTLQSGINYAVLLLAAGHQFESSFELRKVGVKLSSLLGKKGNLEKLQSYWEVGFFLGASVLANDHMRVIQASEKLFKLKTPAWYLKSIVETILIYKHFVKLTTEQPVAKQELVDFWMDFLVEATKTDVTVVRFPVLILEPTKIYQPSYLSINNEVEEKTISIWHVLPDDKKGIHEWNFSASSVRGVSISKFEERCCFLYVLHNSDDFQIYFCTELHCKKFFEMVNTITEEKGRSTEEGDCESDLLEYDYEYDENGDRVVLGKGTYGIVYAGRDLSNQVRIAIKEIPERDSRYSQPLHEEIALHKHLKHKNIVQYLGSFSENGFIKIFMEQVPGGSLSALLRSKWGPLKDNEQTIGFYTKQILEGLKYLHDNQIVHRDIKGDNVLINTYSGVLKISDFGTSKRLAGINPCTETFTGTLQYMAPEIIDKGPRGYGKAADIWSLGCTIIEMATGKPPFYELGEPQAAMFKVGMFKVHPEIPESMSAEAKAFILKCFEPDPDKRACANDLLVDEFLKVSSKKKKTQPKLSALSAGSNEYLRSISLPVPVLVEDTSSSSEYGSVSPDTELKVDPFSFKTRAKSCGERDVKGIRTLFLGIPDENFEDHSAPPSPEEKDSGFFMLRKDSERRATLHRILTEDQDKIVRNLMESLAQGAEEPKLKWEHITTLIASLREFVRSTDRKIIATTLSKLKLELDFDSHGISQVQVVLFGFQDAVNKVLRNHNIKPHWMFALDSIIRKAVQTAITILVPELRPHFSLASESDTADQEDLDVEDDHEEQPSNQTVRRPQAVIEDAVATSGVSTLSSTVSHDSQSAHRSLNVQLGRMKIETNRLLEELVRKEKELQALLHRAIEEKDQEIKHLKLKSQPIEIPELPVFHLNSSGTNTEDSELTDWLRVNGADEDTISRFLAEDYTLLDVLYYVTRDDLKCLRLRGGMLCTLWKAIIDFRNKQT
Please use label 1 for IC50 under 2 nM and label 0 for everything else, ties included.

{"columns": ["Compound", "Tested On", "Class Assignment"],
 "data": [
  ["O=C(Nc1csc(-c2nncn2C2CC2)n1)c1cc(-n2cnc(C3CC3)c2)c(N2CCCC2)cn1 [Example 9]", "recombinant human ASK1 kinase (Homo sapiens (Human), UniProt Q99683)", "label 1"],
  ["C[C@H](n1cnnc1-c1nc(NC(=O)c2cc(-n3cnc(C4CC4)c3)c(N3CCC(C)(O)CC3)cn2)cs1)C(F)(F)F [Example 14]", "recombinant human ASK1 kinase (Homo sapiens (Human), UniProt Q99683)", "label 1"],
  ["C[C@H](n1cnnc1-c1nc(NC(=O)c2cc(-n3cnc(C4CC4)c3)c(N3CCC(O)C3)cn2)cs1)C(F)(F)F (some centres unmarked) [Example 11]", "recombinant human ASK1 kinase (Homo sapiens (Human), UniProt Q99683)", "label 0"],
  ["C[C@H](n1cnnc1-c1nc(NC(=O)c2cc(-n3cnc(C4CC4)c3)c(N3CCCCC3)cn2)cs1)C(F)(F)F [Example 13]", "recombinant human ASK1 kinase (Homo sapiens (Human), UniProt Q99683)", "label 1"],
  ["C[C@H](n1cnnc1-c1nc(NC(=O)c2cc(-n3cnc(C4CC4)c3)c(N3CCC3)cn2)cs1)C(F)(F)F [Example 7]", "recombinant human ASK1 kinase (Homo sapiens (Human), UniProt Q99683)", "label 1"]
]}
